# Test system: CRABP-2 expression of fibroblasts
# assay.details: CRABP-2 protein expression in fibroblasts (Western blot, densitometric scanning)
# Assay type: cell-based, Human
# condition.context: Example 1: 100 nM retinoids and 0.1 μl of a 10% anise seed extract; control as 100%

>  <compound>
CC(=O)OC/C=C(C)/C=C/C=C(C)/C=C/C1=C(C)CCCC1(C)C [Retinyl acetate]

>  <As % of control>
553 % of control

$$$$
>  <compound>
CC1=C(/C=C/C(C)=C/C=C/C(C)=C/CO)C(C)(C)CCC1

>  <As % of control>
317 +/− 39 % of control

$$$$
>  <compound>
CCCCCCCCCCCCCCCC(=O)OC/C=C(C)/C=C/C=C(C)/C=C/C1=C(C)CCCC1(C)C [Retinyl Palmitate]

>  <As % of control>
262 +/− 37 % of control

$$$$
>  <compound>
CCCCC/C=C\C/C=C\CCCCCCCC(=O)OC/C=C(C)/C=C/C=C(C)/C=C/C1=C(C)CCCC1(C)C [Retinyl linoleate]

>  <As % of control>
286 +/− 65 % of control

$$$$
